All figures here come from the supplement of paper PMC10065799.

Attribute: phosphorylation enrichment
# test-system: Fes (UniProt P07332)
# Sequence (P07332 whole entry, looked up): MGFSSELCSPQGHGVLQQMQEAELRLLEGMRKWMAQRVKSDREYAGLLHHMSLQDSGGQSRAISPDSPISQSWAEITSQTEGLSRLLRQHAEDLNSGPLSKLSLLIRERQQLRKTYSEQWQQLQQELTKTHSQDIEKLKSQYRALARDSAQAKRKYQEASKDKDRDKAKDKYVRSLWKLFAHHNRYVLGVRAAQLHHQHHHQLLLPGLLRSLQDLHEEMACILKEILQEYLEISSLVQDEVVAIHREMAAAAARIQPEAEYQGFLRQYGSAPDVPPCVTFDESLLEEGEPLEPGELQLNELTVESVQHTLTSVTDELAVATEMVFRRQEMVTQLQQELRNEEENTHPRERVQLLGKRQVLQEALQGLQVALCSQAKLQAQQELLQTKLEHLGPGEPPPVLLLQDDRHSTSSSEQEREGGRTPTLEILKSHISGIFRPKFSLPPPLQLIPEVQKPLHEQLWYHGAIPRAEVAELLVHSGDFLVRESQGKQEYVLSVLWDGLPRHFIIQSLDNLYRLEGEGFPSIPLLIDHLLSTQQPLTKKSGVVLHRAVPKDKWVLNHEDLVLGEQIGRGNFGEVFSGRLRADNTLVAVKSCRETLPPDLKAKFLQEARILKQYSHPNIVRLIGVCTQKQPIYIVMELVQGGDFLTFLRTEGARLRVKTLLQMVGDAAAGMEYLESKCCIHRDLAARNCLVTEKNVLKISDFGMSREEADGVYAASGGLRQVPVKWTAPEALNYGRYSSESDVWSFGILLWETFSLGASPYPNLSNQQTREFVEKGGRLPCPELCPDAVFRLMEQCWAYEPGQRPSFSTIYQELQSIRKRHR
# test-description: phosphorylation enrichment, bacterial display (enrichment ratio); higher = better substrate or ligand; peptides without Tyr show the background;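 also: 11-residue human phosphosite peptides and single-mutation variants displayed on the E. coli surface, counted by deep sequencing, each peptide's frequency after selection divided by its frequency in the unselected input library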;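 also: frequency after pTyr selection over input frequency; kinase dosed for 20-30% of maximal phosphorylation in three min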
// no unit string in output, number only

Example sequences with recorded phosphorylation enrichment:
TIQMMYGCDVG [HLA-A_Y123_I121M]: 1.38
RGERPYGGGGG [FUS_Y526_R522G]: 0.643
RGEKQYLAAPL [ALOX12_Y295]: 0.416
PRPACYPSTVS [CACNA1C_Y1832_G1831C]: 0.792
QRRNVYFFSFL [PTEN_Y176_Y174N_YF]: 1.42
LKRIAYFLCLR [LGI1_Y21_L26R]: 1.06
EDASEYYENYI [PARP4_Y214_F215Y]: 1.3
QKDIFYGLRSL [IGSF10_Y126_T124I]: 1.29
GLAELYEFKKK [CKAP5_Y1854_YF]: 0.705
ISDDKYGRIRL [ARCN1_Y310]: 0.501

q: Please supply the value of reported phosphorylation enrichment for the item NTILLYHIMAW [GPR143_Y157_S152N]
a: 1.62

q: Please supply the value of reported phosphorylation enrichment for the item ITNLLYHLVGW [GBA_Y412_V414L]
a: 0.866

* * *

# test-system: FGFR3 (UniProt P22607)
# Sequence (P22607 whole entry, looked up): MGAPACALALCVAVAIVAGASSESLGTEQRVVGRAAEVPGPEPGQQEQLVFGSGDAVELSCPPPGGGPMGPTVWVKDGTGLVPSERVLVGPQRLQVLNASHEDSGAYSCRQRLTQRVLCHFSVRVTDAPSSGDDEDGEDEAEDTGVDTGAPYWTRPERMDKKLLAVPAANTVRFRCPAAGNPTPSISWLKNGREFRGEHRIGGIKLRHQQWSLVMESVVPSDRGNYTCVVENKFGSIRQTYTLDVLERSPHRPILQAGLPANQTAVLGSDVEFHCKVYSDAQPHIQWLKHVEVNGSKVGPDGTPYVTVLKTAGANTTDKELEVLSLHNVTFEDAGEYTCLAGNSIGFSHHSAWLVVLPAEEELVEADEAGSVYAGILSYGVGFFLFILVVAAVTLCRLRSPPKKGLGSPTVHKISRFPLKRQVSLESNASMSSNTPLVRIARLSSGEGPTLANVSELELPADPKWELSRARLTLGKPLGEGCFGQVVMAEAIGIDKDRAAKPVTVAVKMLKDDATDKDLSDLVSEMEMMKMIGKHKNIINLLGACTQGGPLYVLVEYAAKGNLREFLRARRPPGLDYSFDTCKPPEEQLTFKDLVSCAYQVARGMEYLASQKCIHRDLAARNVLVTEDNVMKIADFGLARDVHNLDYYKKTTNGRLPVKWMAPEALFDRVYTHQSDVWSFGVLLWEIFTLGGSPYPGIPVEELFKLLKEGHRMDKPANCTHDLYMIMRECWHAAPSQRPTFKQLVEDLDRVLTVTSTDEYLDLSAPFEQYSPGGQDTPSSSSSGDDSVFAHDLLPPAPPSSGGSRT
# test-description: phosphorylation enrichment, bacterial display (enrichment ratio); higher = better substrate or ligand; peptides without Tyr show the background
parameter-measured: phosphorylation enrichment
// no unit string in output, number only

PATINYLFEKG [NDUFS8_Y84_P85L]: 0.963

q: Consider the sequence FGPPQYNMQFS [ERBB2IP_Y977_I979M_YF] tested on FGFR3 (UniProt P22607); state its phosphorylation enrichment.
a: 0.452

* * *

# test-system: EPHB1 (UniProt P54762)
# Sequence (P54762 whole entry, looked up): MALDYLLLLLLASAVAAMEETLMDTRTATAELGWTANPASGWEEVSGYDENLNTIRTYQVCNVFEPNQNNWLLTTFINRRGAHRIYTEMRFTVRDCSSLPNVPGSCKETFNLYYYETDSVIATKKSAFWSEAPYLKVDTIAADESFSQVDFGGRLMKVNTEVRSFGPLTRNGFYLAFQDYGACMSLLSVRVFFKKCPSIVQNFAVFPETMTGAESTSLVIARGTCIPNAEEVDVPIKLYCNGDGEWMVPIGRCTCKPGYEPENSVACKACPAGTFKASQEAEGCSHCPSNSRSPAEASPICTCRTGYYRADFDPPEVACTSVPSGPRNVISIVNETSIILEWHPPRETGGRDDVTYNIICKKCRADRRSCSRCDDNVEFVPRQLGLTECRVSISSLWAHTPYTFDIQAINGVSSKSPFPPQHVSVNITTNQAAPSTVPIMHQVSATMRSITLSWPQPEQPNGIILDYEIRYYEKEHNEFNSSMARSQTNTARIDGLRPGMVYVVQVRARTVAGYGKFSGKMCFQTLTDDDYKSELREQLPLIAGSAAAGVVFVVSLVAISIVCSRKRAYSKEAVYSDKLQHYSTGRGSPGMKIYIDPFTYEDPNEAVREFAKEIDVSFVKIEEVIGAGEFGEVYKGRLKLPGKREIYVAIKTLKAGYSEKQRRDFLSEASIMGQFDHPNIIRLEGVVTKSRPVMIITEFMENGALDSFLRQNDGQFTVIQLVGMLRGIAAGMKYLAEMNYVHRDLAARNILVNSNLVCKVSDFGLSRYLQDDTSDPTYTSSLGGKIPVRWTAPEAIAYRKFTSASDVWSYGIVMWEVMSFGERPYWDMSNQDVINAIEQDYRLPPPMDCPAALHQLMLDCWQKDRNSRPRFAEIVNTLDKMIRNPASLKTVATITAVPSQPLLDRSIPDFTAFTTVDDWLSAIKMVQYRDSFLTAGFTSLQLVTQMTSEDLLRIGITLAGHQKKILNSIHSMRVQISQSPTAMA
# test-description: phosphorylation enrichment, bacterial display (enrichment ratio); higher = better substrate or ligand; peptides without Tyr show the background
Output y for phosphorylation enrichment not less than 0.5; output n otherwise.

Reference set (2 entries):
RDHFGYRQSVT [CD55_Y245_YF]: y
REAAAYLHGRL [AGXT_Y297]: n

q: Textbook exercise: given the entry QKDIFYGLRSL [IGSF10_Y126_T124I] , state whether its phosphorylation enrichment is greater than or equal to 0.5.
a: y

q: Textbook exercise: given the entry NIWDSYTTNKV [GNB1_Y85_I80N] , state whether its phosphorylation enrichment is greater than or equal to 0.5.
a: y

q: Textbook exercise: given the entry HNMPIYEGYAL [ACTA1_Y168_V165M] , state whether its phosphorylation enrichment is greater than or equal to 0.5.
a: y

q: Textbook exercise: given the entry LQRVQCDLQKA [DSP_Y1512_Y1512C] , state whether its phosphorylation enrichment is greater than or equal to 0.5.
a: y

q: Textbook exercise: given the entry GAAMLYYPSVS [GPR143_Y177] , state whether its phosphorylation enrichment is greater than or equal to 0.5.
a: y

q: Textbook exercise: given the entry VGTKRYMALEV [ACVRL1_Y375_P378L] , state whether its phosphorylation enrichment is greater than or equal to 0.5.
a: y

q: Textbook exercise: given the entry SLIDMYSEVPD [OPA1_Y268_L272P] , state whether its phosphorylation enrichment is greater than or equal to 0.5.
a: n

q: Textbook exercise: given the entry CGTPEYRAPEI [PRKACA_Y205_L206R] , state whether its phosphorylation enrichment is greater than or equal to 0.5.
a: y

q: Textbook exercise: given the entry NAPNSYGRRPS [CDKN2A_Y44_I49S] , state whether its phosphorylation enrichment is greater than or equal to 0.5.
a: n

q: Textbook exercise: given the entry AELVQYFMEHH [PTPN11_Y80_YF] , state whether its phosphorylation enrichment is greater than or equal to 0.5.
a: y

q: Textbook exercise: given the entry DAMQTYNGNDE [TSPAN7_Y131] , state whether its phosphorylation enrichment is greater than or equal to 0.5.
a: y

q: Textbook exercise: given the entry YAKSVYWDNTL [NUP107_Y296_E298D] , state whether its phosphorylation enrichment is greater than or equal to 0.5.
a: y

q: Textbook exercise: given the entry GCAGKYIAMVM [CYP19A1_Y441] , state whether its phosphorylation enrichment is greater than or equal to 0.5.
a: y

q: Textbook exercise: given the entry LSIQCYLRALD [HMGCS2_Y262] , state whether its phosphorylation enrichment is greater than or equal to 0.5.
a: y

q: Textbook exercise: given the entry IHFAIYFLKYS [ARMC9_Y107_L108F] , state whether its phosphorylation enrichment is greater than or equal to 0.5.
a: y
